Where these numbers come from: the supplement of paper PMC6555819

Readings of PBM binding z-score for the listed sequences
System: LXRb homodimer (NR concentration 270 nM)
method: PBM binding z-score (relative to random genomic background probes); higher = stronger binding; sequences stand for … in GC…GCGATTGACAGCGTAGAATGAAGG
Respond using a number only.

{"columns": ["sequenceRecord", "testedTarget", "PBM binding z-score"],
 "data": [
  ["CCTATTAGTTGATCATAAGGGCAACCGAAGCTCG", "LXRb homodimer (NR concentration 270 nM)", 0.94],
  ["GCTCGGCGGACAAGGTCAGAGCTTTGTCCGTAGA", "LXRb homodimer (NR concentration 270 nM)", -1.28],
  ["CGTCAAAGTTCAACAAAGGTAACGTAAAGCACGC", "LXRb homodimer (NR concentration 270 nM)", 1.98],
  ["CGACCTAGGTCATCCAGGACAGTGAATACATTGA", "LXRb homodimer (NR concentration 270 nM)", 0.0681],
  ["ATCTCTAGGTAAAGACAGTTCAGTGAATGCAAAT", "LXRb homodimer (NR concentration 270 nM)", 0.542],
  ["ACTAGCATGCCAAGTTTGGGTCACTCAAACAAAG", "LXRb homodimer (NR concentration 270 nM)", -0.573]
]}

## Input Give recorded PBM binding z-score. TCTTGTAGCTCAGCAGGTTAAGAAAGCTGGCCAA
## Output -0.79

## Input Give recorded PBM binding z-score. CCTTACTGGTCAAGGTTATAGCACGGGTGGTACG
## Output 0.339

## Input Give recorded PBM binding z-score. CCTTGTTGGTCAGGAGGTCACACACCGGATATGA
## Output 0.947

## Input Give recorded PBM binding z-score. CTAACGAGGGCATGAGTTGATAGCAAATGCCGAT
## Output -0.182

## Input Give recorded PBM binding z-score. CGAACTAGGTCAGAACAGGACAGTGTAGGATGAT
## Output -0.539

## Input Give recorded PBM binding z-score. CCTCGGAGGACGGAAGGTCAGAGCTGTCCGCTTT
## Output -1.26

###

Test system: PPARg:RXRa 270nM:90nM, anti-RXR (NR concentration 270 nM, RXRa partner concentration 90 nM)
method: PBM binding z-score (relative to random genomic background probes); higher = stronger binding; sequences stand for … in GC…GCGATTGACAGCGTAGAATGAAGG
Respond with 1 for PBM binding z-score values of 2 and above, 0 for values below.

{"columns": ["sequenceRecord", "discreteLabel"],
 "data": [
  ["ATACCAAGGTGATCGTGAGGTCGTTCATACTAAC", 0]
]}

## Input Given the entry CGTCCAAGGGCAAAGGTCAGTGAAGAGATGACGG , answer whether its PBM binding z-score meets or surpasses 2.
## Output 1

## Input Given the entry TCTATAAGTTGAAGGGCAACCGACGAGTCCGTTT , answer whether its PBM binding z-score meets or surpasses 2.
## Output 1

## Input Given the entry TCTTGTGGATCAATAGAGGTTAAGAAAGTGCGCT , answer whether its PBM binding z-score meets or surpasses 2.
## Output 0

## Input Given the entry TCTATTAGTTGATTAGCGCAACCGAAACAGCGGA , answer whether its PBM binding z-score meets or surpasses 2.
## Output 1

## Input Given the entry GCGACTGGGGCAAAGCACGTTACCATAAGGTTGG , answer whether its PBM binding z-score meets or surpasses 2.
## Output 1

## Input Given the entry AGTCAAAGTTCACTAGGTAATGTAAGATTCAGCT , answer whether its PBM binding z-score meets or surpasses 2.
## Output 1

## Input Given the entry ACAAACAGGTGATGAAGGTAACTCAGGCTATCAT , answer whether its PBM binding z-score meets or surpasses 2.
## Output 0

## Input Given the entry TCTAGTTGGACAAAGGTCACACACTCGAAATGCG , answer whether its PBM binding z-score meets or surpasses 2.
## Output 1

## Input Given the entry ATATGTAGGTTAAGGGGCATTCAGGTTGGTTCGC , answer whether its PBM binding z-score meets or surpasses 2.
## Output 1

## Input Given the entry ACTAGCAGGCCAAGGGCCACTCAAGATTAGTCCG , answer whether its PBM binding z-score meets or surpasses 2.
## Output 1

###

Tested on: RARa:RXR (NR concentration 270 nM, RXRa partner concentration 90 nM)
method: PBM binding z-score (relative to random genomic background probes); higher = stronger binding; sequences stand for … in GC…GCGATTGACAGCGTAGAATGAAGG
Readings of PBM binding z-score for the listed sequences
Respond using a number only.

## Input Give recorded PBM binding z-score. TCTCGGAGGGCACGAAGGTCAGAGCTTTCCAGAG
## Output 2.88

## Input Give recorded PBM binding z-score. CGTCCAAGGTCAGAGAGGTCAGTTAATGCCGAGT
## Output 5.94

## Input Give recorded PBM binding z-score. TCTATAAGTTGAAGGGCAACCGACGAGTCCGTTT
## Output 0.558

## Input Give recorded PBM binding z-score. CCTAGTTGGTCGAGGTCACACACGCTATAGGTAC
## Output 5.08

## Input Give recorded PBM binding z-score. GGAACGAGGGCACGTTGATAGCAGAGTTTGATGG
## Output 0.282

###

System: VDR homodimer (NR concentration 270 nM)
method: PBM binding z-score (relative to random genomic background probes); higher = stronger binding; sequences stand for … in GC…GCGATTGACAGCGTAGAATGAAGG
Readings of PBM binding z-score for the listed sequences
Respond using a number only.

Recorded results for 8 sequences are shown here.
{"columns": ["sequenceRecord", "testedTarget", "numericResult"],
 "data": [
  ["CAAACTAGGTCAAAGGTCTAAGTCGAGCCAACCA", "VDR homodimer (NR concentration 270 nM)", 1.09],
  ["ACTAGCTGGCCAAGGGTCACTCAAGATTAGTCCG", "VDR homodimer (NR concentration 270 nM)", 0.917],
  ["CTCGAAAGGTCGGTTGAGGTAAGTATACGGATAA", "VDR homodimer (NR concentration 270 nM)", 0.257],
  ["GCTTGTAGATCGAGGTTAAGAAAGACTAAGCTAA", "VDR homodimer (NR concentration 270 nM)", -0.273],
  ["ATCGAAACGTCGAAGGTGAGTATACCCACCCGAA", "VDR homodimer (NR concentration 270 nM)", -0.497],
  ["GCTCGGAGGACAAGGACAGAGCTTTGTCCGTAGA", "VDR homodimer (NR concentration 270 nM)", -0.639],
  ["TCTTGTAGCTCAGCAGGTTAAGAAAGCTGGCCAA", "VDR homodimer (NR concentration 270 nM)", -0.952],
  ["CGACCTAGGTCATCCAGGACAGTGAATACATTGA", "VDR homodimer (NR concentration 270 nM)", 2.5]
]}

Consider the record given below.
## Input Please look at ACAGGCAGGTGATGAAGGTAACTCAGGCTATCAT and tell me its recorded PBM binding z-score on VDR homodimer (NR concentration 270 nM).
## Output -0.29

###

Readings of PBM binding z-score for the listed sequences
Tested on: PPARg:RXRa DBDmut IVT, anti-RXR (DBD mutation: RXRa K156A/R161A, NR concentration 270 nM, RXRa partner concentration 90 nM)
method: PBM binding z-score (relative to random genomic background probes); higher = stronger binding; sequences stand for … in GC…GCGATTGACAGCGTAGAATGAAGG

{"columns": ["sequenceRecord", "PBM binding z-score"],
 "data": [
  ["GCAGACAGGTGAAACGCACGTAACTCAGGGTGGC", 0.74],
  ["CCGAGTAGGTTATGGGGCGTTCAGGCAACGGTGA", 2.68]
]}

Consider the record given below.
## Input Give recorded PBM binding z-score. CCGACTGGGGCTGAAAGGTTACCATACCATCCGG
## Output -0.623

###

Tested on: PPARg DBDmut:RXRa IVT, anti-PPARg (DBD mutation: PPARg1 K132A/R137A, NR concentration 270 nM, RXRa partner concentration 90 nM)
method: PBM binding z-score (relative to random genomic background probes); higher = stronger binding; sequences stand for … in GC…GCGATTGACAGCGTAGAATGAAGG
Readings of PBM binding z-score for the listed sequences
Respond using a number only.

## Input Give recorded PBM binding z-score. CCTCCTGGGCCATCAGGTCATTGATATCAACGTT
## Output -1.18

## Input Give recorded PBM binding z-score. CCAGACAGGTGAAAGGTAACGCAGTCTGGTACGC
## Output -0.31

## Input Give recorded PBM binding z-score. CCTATTAGTTGACCATTAGGGCAACCGAAGCTCG
## Output -0.00387

## Input Give recorded PBM binding z-score. TCGAGTAGGTTAGTCGGGGCATACAGCCAACATA
## Output -0.401

## Input Give recorded PBM binding z-score. CCTTACGGGTCACTACAGGTTATAGCATCGGAGT
## Output 0.858
